pIC50: −log10 of the molar value.
Quick note: these are pIC50 numbers for system: CDK4 (cyclin dependent kinase 4) (Homo sapiens)
Sequence (P11802 whole entry, species assumed): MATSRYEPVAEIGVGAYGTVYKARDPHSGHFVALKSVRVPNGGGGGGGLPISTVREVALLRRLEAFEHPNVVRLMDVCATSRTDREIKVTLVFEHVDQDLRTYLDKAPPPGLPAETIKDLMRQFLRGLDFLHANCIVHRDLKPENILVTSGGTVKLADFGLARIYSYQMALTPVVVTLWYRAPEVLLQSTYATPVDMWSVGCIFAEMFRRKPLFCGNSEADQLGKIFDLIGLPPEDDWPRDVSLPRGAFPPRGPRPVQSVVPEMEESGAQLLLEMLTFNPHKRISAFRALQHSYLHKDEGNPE
Sequence (P24385 whole entry partner, species assumed): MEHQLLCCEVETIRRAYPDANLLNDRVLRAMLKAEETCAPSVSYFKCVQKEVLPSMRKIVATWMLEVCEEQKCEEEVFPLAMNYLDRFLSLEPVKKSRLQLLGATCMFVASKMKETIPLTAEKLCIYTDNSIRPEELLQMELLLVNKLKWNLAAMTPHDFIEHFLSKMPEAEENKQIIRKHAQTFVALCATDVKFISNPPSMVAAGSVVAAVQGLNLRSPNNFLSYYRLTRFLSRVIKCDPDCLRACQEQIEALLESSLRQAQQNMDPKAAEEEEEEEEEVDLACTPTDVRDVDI

pIC50 for CDK4 (cyclin dependent kinase 4) (Homo sapiens) with input "CN(C)CCCNc1cncc(-c2cncc(Nc3cccc(Cl)c3)n2)c1" equals ~5.00

pIC50 for CDK4 (cyclin dependent kinase 4) (Homo sapiens) with input "CN(C)CCNc1cncc(-c2cncc(Nc3cccc(Cl)c3)n2)c1" equals ~5.00

###

# system_tested: CDK1 (cyclin dependent kinase 1) / cyclin B (Homo sapiens)
# Construct: purchased New England Biolabs 6020; host or cells: insect cells
# method_description: CDK1 kinase assay
# Assay type: biochemical
# measurement_context: Table 4 kinase selectivity; 10 = approximate value; read-out: IC50, Assay 2 CDK1
pIC50: −log10 of the molar value.
experimental_endpoint: pIC50

pIC50 for CDK1 (cyclin dependent kinase 1) / cyclin B (Homo sapiens) with input "Clc1cccc(Nc2cncc(-c3cncc(NCCCn4cncn4)c3)n2)c1" equals < 4.00

pIC50 for CDK1 (cyclin dependent kinase 1) / cyclin B (Homo sapiens) with input "CN(C)CCNc1cncc(-c2cncc(Nc3cccc(Cl)c3)n2)c1" equals < 5.00

pIC50 for CDK1 (cyclin dependent kinase 1) / cyclin B (Homo sapiens) with input "Clc1cccc(Nc2cncc(-c3cncc(NCCCn4cccn4)c3)n2)c1" equals < 4.00

pIC50 for CDK1 (cyclin dependent kinase 1) / cyclin B (Homo sapiens) with input "OCCCCNc1cncc(-c2cncc(Nc3cccc(Cl)c3)n2)c1" equals < 4.00

###

Quick note: these are IC50 numbers for system: PKC-γ (Homo sapiens)
Note: unit µM is implicit; provide only the numeric part.

For reference, reported IC50 for "CN(C)CCCNc1cncc(-c2cncc(Nc3cccc(Cl)c3)n2)c1" stands at 14.5

For reference, reported IC50 for "Clc1cccc(Nc2cncc(-c3cncc(NCCCN4CCCCC4)c3)n2)c1" stands at 1.36

For reference, reported IC50 for "CN(C)CCNc1cncc(-c2cncc(Nc3cccc(Cl)c3)n2)c1" stands at 3.96

###

# system_tested: CDK1 (cyclin dependent kinase 1) / cyclin B (Homo sapiens, UniProt P06493)
# Construct: purchased New England Biolabs 6020; host or cells: insect cells
# Sequence (P06493 whole entry): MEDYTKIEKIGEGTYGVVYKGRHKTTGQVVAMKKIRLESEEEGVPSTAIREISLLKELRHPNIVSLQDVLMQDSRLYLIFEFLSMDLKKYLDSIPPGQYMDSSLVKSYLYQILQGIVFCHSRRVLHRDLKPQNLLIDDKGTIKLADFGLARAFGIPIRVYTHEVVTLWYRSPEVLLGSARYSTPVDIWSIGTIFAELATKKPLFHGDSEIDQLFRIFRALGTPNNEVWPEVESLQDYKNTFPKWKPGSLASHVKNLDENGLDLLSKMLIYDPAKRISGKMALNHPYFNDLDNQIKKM
# Sequence (P14635 whole entry partner): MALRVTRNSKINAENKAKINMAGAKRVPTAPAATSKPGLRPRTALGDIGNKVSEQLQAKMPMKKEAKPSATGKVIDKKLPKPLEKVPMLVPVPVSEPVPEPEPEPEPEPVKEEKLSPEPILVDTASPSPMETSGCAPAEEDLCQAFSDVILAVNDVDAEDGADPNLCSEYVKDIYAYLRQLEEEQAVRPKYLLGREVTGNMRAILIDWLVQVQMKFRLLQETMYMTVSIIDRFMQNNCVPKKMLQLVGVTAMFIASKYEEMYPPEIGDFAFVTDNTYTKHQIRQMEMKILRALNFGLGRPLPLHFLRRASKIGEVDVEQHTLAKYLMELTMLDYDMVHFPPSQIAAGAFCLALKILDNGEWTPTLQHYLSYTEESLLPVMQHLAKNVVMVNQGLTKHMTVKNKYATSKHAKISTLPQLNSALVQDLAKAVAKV
# method_description: CDK1 kinase assay
# Type: biochemical
# measurement_context: Tables 1-3; >10 or >100 = no 50% inhibition at highest dose tested; read-out: CDK IC50
Provide the recorded IC50 for the entries that follow.

For reference, reported IC50 for "CN(C)CCCNC(=O)c1cncc(-c2cncc(Nc3cccc(Cl)c3)n2)c1" stands at > 100 µM

For reference, reported IC50 for "COc1ccc(Nc2cncc(-c3cncc(NCCCc4ccncc4)c3)n2)cc1" stands at > 10 µM

For reference, reported IC50 for "OCCCNc1cnc(F)c(-c2cncc(Nc3cccc(Cl)c3)n2)c1" stands at > 10 µM

For reference, reported IC50 for "OCCCNc1cncc(-c2cncc(Oc3cccc(Cl)c3)n2)c1" stands at > 10 µM

For reference, reported IC50 for "O=C(Nc1cncc(-c2cncc(Nc3cccc(Cl)c3)n2)c1)c1cccnc1" stands at > 100 µM

For reference, reported IC50 for "OCCCNc1cncc(-c2cncc(Nc3cccc(F)c3)n2)c1" stands at ~100 µM

For reference, reported IC50 for "COCCOCC(=O)Nc1cncc(-c2cncc(Nc3cccc(Cl)c3)n2)c1" stands at > 10 µM

For reference, reported IC50 for "CN(C)CCNC(=O)c1cncc(-c2cncc(Nc3cccc(Cl)c3)n2)c1" stands at 3.69 µM

For reference, reported IC50 for "CN(C)c1ccc(C(=O)Nc2cncc(-c3cncc(Nc4cccc(Cl)c4)n3)c2)cc1" stands at > 100 µM
